Target Or System: L-lactate dehydrogenase A chain (Homo sapiens)
Procedure Summary: Binding affinity to human recombinant carboxy-terminal avi-tagged LDHA (1 to 331) expressed in Escherichia coli by surface plasmon resonance analysis presence of NADH
Readout Label: Kd (µM)

For orientation, consider the following solved cases.
{"columns": ["Molecule", "Value Measured"],
 "data": [
  ["Cc1ccc(NC(=O)CSc2nc(-c3ccc(Cl)cc3)c(C#N)c(=O)[nH]2)cc1C", 552],
  ["N#Cc1c(-c2ccc(Cl)cc2)nc(SCC(=O)Nc2ccc(Cl)cc2)[nH]c1=O", 570],
  ["CNS(=O)(=O)c1ccc(NC(=O)CSc2nc(-c3ccc(Cl)cc3)c(C#N)c(=O)[nH]2)cc1", 532]
]}

[1] Cc1cccc(NC(=O)CSc2nc(-c3ccc(Cl)cc3)c(C#N)c(=O)[nH]2)c1C
[2] Cc1c(Cl)cccc1NC(=O)CSc1nc(-c2ccc(Cl)cc2)c(C#N)c(=O)[nH]1
[3] CCC(Sc1nc(-c2ccc(Cl)cc2)c(C#N)c(=O)[nH]1)C(=O)Nc1ccc(S(N)(=O)=O)cc1 (racemic)
Ranking field: Kd; order: falling. Submit the labels in the order that the ranking request calls for. 1, 2, 3
(1: 1060 µM, 2: 462 µM, 3: 3 µM)
